# Lookup of reported Cell viability (%) keyed by entry
- Tested on: INS-1 cells
- PROTOCOL SUMMARY: INS-1 cell toxicity (CCK-8 cell viability)
- CONDITION LABEL: 1 μM, 24 hours, INS-1 cells, CCK-8
Record the result as a number with its unit.

These solved cases illustrate the format of a correct answer.
Cc1ccc(S(=O)(=O)NC(=O)NN2CC3CCCC3C2)cc1 (stereo not drawn) [Glyclazide, gliclazide, reference compound] = 99.7 ± 0.2%
CCCCC/C=C/C(=O)CCc1ccc(O)c(OC)c1 [[6]-shogaol] = 101.1 ± 0.4%
CCCCCCCCC/C=C/C(=O)CCc1ccc(O)c(OC)c1 [[10]-shogaol] = 101.9 ± 2.2%
CCCCC[C@H](O)CC(=O)CCc1ccc(O)c(OC)c1 [[6]-gingerol] = 98.1 ± 2.7%
CCCCCCC/C=C/C(=O)CCc1ccc(O)c(OC)c1 [[8]-shogaol] = 94.0 ± 2.6%

As a next step, examine the compound that follows.
Sample CCCCCCCCC[C@H](O)CC(=O)CCc1ccc(O)c(OC)c1 [[10]-gingerol] — what was its Cell viability (%)?
99.3 ± 1.6%

----------
- Tested on: INS-1 cells
- PROTOCOL SUMMARY: INS-1 cell toxicity (CCK-8 cell viability)
- CONDITION LABEL: 2.5 μM, 24 hours, INS-1 cells, CCK-8
MEASUREMENT LABEL: Cell viability (%)
Write the number in % without appending the unit.

Cc1ccc(S(=O)(=O)NC(=O)NN2CC3CCCC3C2)cc1 (stereo not drawn) [Glyclazide, gliclazide, reference compound] = 96.3
CCCCC[C@H](O)CC(=O)CCc1ccc(O)c(OC)c1 [[6]-gingerol] = 98.7
CCCCC/C=C/C(=O)CCc1ccc(O)c(OC)c1 [[6]-shogaol] = 101.8
CCCCCCC/C=C/C(=O)CCc1ccc(O)c(OC)c1 [[8]-shogaol] = 96.3
CCCCCCCCC[C@H](O)CC(=O)CCc1ccc(O)c(OC)c1 [[10]-gingerol] = 100.6

Sample CCCCCCCCC/C=C/C(=O)CCc1ccc(O)c(OC)c1 [[10]-shogaol] — what was its Cell viability (%)?
99.8

----------
- Test system: INS-1 cells
- PROTOCOL SUMMARY: Glucose stimulated insulin secretion (GSIS) of INS-1 cell
- Format: cell-based, rat
- CONDITION LABEL: 1 μM; insulin secreted at 16.7 mM glucose divided by that at 3.3 mM glucose
# Lookup of reported Stimulation index (SI) keyed by entry
The response must contain the number and no unit.

Form: Entry = CCCCC[C@H](O)CC(=O)CCc1ccc(O)c(OC)c1 [[6]-gingerol] | System = INS-1 cells | Stimulation index (SI) = ____
2.4

What about CCCCCCCCC[C@H](O)CC(=O)CCc1ccc(O)c(OC)c1 [[10]-gingerol] ?
1.7

What about CCCCCCCCC/C=C/C(=O)CCc1ccc(O)c(OC)c1 [[10]-shogaol] ?
1.9

What about CCCCCCC[C@H](O)CC(=O)CCc1ccc(O)c(OC)c1 [[8]-gingerol] ?
1.1

What about Cc1ccc(S(=O)(=O)NC(=O)NN2CC3CCCC3C2)cc1 (stereo not shown) [Glyclazide, gliclazide, reference compound] ?
1.3

What about CCCCCCC/C=C/C(=O)CCc1ccc(O)c(OC)c1 [[8]-shogaol] ?
1.3

----------
- Tested on: INS-1 cells
- PROTOCOL SUMMARY: INS-1 cell toxicity (CCK-8 cell viability)
- CONDITION LABEL: 5 μM, 24 hours, INS-1 cells, CCK-8
MEASUREMENT LABEL: Cell viability (%)
Write the number in % without appending the unit.

Cc1ccc(S(=O)(=O)NC(=O)NN2CC3CCCC3C2)cc1 (stereo not drawn) [Glyclazide, gliclazide, reference compound] = 91.1
CCCCCCCCC[C@H](O)CC(=O)CCc1ccc(O)c(OC)c1 [[10]-gingerol] = 100.7
CCCCCCC/C=C/C(=O)CCc1ccc(O)c(OC)c1 [[8]-shogaol] = 92.4
CCCCC[C@H](O)CC(=O)CCc1ccc(O)c(OC)c1 [[6]-gingerol] = 98.2
CCCCC/C=C/C(=O)CCc1ccc(O)c(OC)c1 [[6]-shogaol] = 101.2

As a next step, examine the molecule that follows.
Sample CCCCCCCCC/C=C/C(=O)CCc1ccc(O)c(OC)c1 [[10]-shogaol] — what was its Cell viability (%)?
99.6

Cited source for all entries: patent US20220133835A1
